The measurements presented in this section are drawn from patent US20260077009A1.

Experiment: Stability of NTI164 in oil at room temperature (UPLC, weekly assay, CBDA as marker)
Details: Day 28 (12 Aug. 2021)
endpoint name: Cannabinoid concentration in NTI164 (sample 28206-7) (mg/mL)
Numeric answer only, unit mg/mL assumed.

The compound listed as `C=C(C)[C@@H]1CCC(C)=C[C@H]1c1c(O)cc(CCCCC)c(C(=O)O)c1O` shows Cannabinoid concentration in NTI164 (sample 28206-7) equal to 47.12

The compound listed as CCCCCc1cc2c(c(O)c1C(=O)O)[C@@H]1C=C(C)CC[C@H]1C(C)(C)O2 [(Tetrahydrocannabinolic acid) (D9-THCA), Tetrahydrocannabinolic acid] shows Cannabinoid concentration in NTI164 (sample 28206-7) equal to 0.36

The compound listed as CCCCCc1cc(O)c2c(c1)OC(C)(CCC=C(C)C)C=C2 (stereo not drawn) shows Cannabinoid concentration in NTI164 (sample 28206-7) equal to 1.27

The compound listed as `CCCCCc1cc(O)c2c(c1)OC(C)(C)c1ccc(C)cc1-2` shows Cannabinoid concentration in NTI164 (sample 28206-7) equal to 2.56
